assay: Pharmacokinetics of myricetin in rats; type: in vivo; details: plasma, po; from Table 1 (rat), first value (50 mg/kg p.o.), converted

>  <structureString>
O=c1c(O)c(-c2cc(O)c(O)c(O)c2)oc2cc(O)cc(O)c12

>  <Cmax / µM>
5

$$$$

###

assay: Estimated human Cmax of myricetin by conversion from rats; details: human, oral, 10 mg

>  <compound>
O=c1c(O)c(-c2cc(O)c(O)c(O)c2)oc2cc(O)cc(O)c12 [myricetin]

>  <Cmax>
~400 nM

$$$$

###

assay: Pharmacokinetics of myricetin in rats; assay type: in vivo; details: plasma, po; from Table 1 (rat), second value (100 mg/kg p.o.), converted
quantityMeasured: Cmax

>  <structureString>
O=c1c(O)c(-c2cc(O)c(O)c(O)c2)oc2cc(O)cc(O)c12

>  <quantityMeasured>
Cmax

>  <result>
8.7 µM

$$$$
